Measured growth inhibition by item
Test: NCI Yeast Anticancer Drug Screen. Data for the sgs1 mgt1 strain (AID 161);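 note: 0% = growth of cultures given vehicle only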
Details: S. cerevisiae sgs1 mgt1 strain, hits give high values; at 50.0 µM unless noted
This is part of a sample that, as a whole, favours compounds with a hit. Of some 79,000 tested, about 15% had one in any assay.

COMPOUND	growth inhibition, %
COC(=O)c1cc(C(=O)OC)c(CC(=O)C(=O)NC2C3CC4CC(C3)CC2C4)nc1CC(=O)C(=O)NC1C2CC3CC(C2)CC1C3 (stereo not given)	-11.9
N#CC(C(=O)C(=O)Nc1nccs1)c1ccccc1 (stereo not given)	4.75
Cc1ccc(S(=O)(=O)ONNc2nccc3ccccc23)cc1	1.55
Cc1noc(NS(=O)(=O)c2ccc(Nc3nc(CC(=O)Nc4ccccc4)cs3)cc2)c1C	17.2
COC(=O)/C([O-])=C(\C(=O)OC)[n+]1cc(Br)cc2ccccc21	31.6

* * *

Test: NCI Yeast Anticancer Drug Screen. Data for the cln2 rad14 strain (AID 165);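 note: 0% = growth equal to vehicle treated cultures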
Settings: S. cerevisiae cln2 rad14 strain, hits give high values; at 50.0 µM unless noted
Compounds without any hit were thinned out: in the full panel of roughly 79,000, 15% have a hit. Active and inactive are the calls of the source. Rule as the data show it: active = growth inhibition above about 70%; inactive = the rest.

COMPOUND	growth inhibition
CCCCCCCCCCCC(=O)CCCCCCCCCCCC(=O)OC	14.2% (inactive)
[N-]=[N+]=CC(=O)C1OC12C1CC3CC(C1)CC2C3 (stereo not drawn)	-6.25% (inactive)
COCCC(=O)OCCC(C)OC (stereo not drawn)	1.95% (inactive)
O=c1[nH]cc(Br)c(=O)[nH]1	9.3% (inactive)
CCOC(=O)C(c1ccc2c(c1)OCO2)C1(NC(=O)c2ccccc2)C(=O)C(C(=O)OC)C(=O)C1C(=O)OC (stereo not drawn)	10% (inactive)
CN(C)CCOC(=O)C1C2CC3OC(=O)C1C3C2 (stereo not drawn)	-5% (inactive)
Cc1cc(OCC(=O)O)cc(C)c1C	-18.6% (inactive)
N#CC1CSCC1=O (stereo not drawn)	-12.8% (inactive)
CC1(C)OC2C(/C=C\C(=O)c3ccccc3)OC(n3ccc(=O)[nH]c3=O)C2O1 (stereo not drawn)	13.4% (inactive)
c1ccc(CNc2nnnc3ccccc23)cc1	-30.8% (inactive)
O=C(NC1(Sc2ccccc2)CC1)c1ccc(Cl)cc1	20.6% (inactive)
C=CCNC(=S)NNc1nc(C)cc(=O)[nH]1	5.55% (inactive)
O=C(O)c1ccccc1Br	-6.95% (inactive)

* * *

Measured growth inhibition by item
Assay: NCI Yeast Anticancer Drug Screen. Data for the sgs1 mgt1 strain (AID 161);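 note: 0% = growth of cultures given vehicle only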
Conditions: S. cerevisiae sgs1 mgt1 strain, hits give high values; at 50.0 µM unless noted
Compounds without any hit were thinned out: in the full panel of roughly 79,000, 15% have a hit.

COMPOUND	READOUT UNITS	growth inhibition
CCN(CC)CCN=c1nc(/C=C\C=C\NN(C)C(=S)SC)c(C)nn1C	%	-15
Cc1cc(Cl)ccc1NC(=O)C1C(=O)N(c2ccc(Cl)cc2C)C(=O)/C1=N\N (stereo unspecified)	%	10.4
COc1ccc(C(=O)Oc2ccccc2C(C)=O)cc1	%	0.7
CNc1nc(=O)[nH]c(C)c1[N+](=O)[O-]	%	-6.9
CCCCNC(=O)/C(=C\c1ccc(OC)c(OC)c1)NC(=O)c1ccccc1	%	-34.4
Cc1c2c(c(C)c3c1C(=O)c1cc4c(cc1C3=O)OCO4)OC(C)(C)O2	%	21.4
O=c1[nH]c2ccc([N+](=O)[O-])cc2nc1/C(=N/Nc1ccccc1)C(O)c1ccco1 (stereo unspecified)	%	-12.8
C#CC(O)C1OC(C)(C)OC1C1COC(C)(C)O1 (stereo unspecified)	%	13.2
O=C(CCS(=O)(=O)CCC(=O)c1ccccc1)c1ccccc1	%	2.25
O=C1OCC(c2ccccc2)=C1c1ccccc1	%	20.3
O=C(O)c1cc(Cl)cc(C(=O)O)n1	%	-11.8

* * *

Measured growth inhibition by item
Experiment: NCI Yeast Anticancer Drug Screen. Data for the rad50 strain (AID 155);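 note: 0% = growth of vehicle-only cultures of the same strain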
Settings: S. cerevisiae rad50 strain growth inhibition, hits give high values; at 50.0 µM unless noted
About 79,000 compounds went through this panel and 15% of them were active in at least one assay; those are over-represented in the sample as a whole.
READOUT TYPE: growth inhibition (%)

MOLECULE	READOUT TYPE	READOUT UNITS	REPORTED RESULT
NCCCCCCCCCCN	growth inhibition	%	-22.9
CC(=O)OC1CC(n2cc(F)c(=O)[nH]c2=O)OC1CO (configuration not stated)	growth inhibition	%	7.95
CC1CC(NC(=S)N(C)C)CC(C)(C)C1 (configuration not stated)	growth inhibition	%	6.9
COc1ccc(NS(=O)c2ccccc2)cc1 (configuration not stated)	growth inhibition	%	10.1
COc1ccc(NS(=O)(=O)c2ccc(NC(CNC(C)S(=O)(=O)O)S(=O)(=O)O)cc2)cc1 (configuration not stated)	growth inhibition	%	18.1
N#CCN1CCc2ccccc2C1	growth inhibition	%	-8.45
N#Cc1ccc(CC(=O)c2ccccc2)cc1	growth inhibition	%	-6.05

* * *

Assay: NCI Yeast Anticancer Drug Screen. Data for the mlh1 rad18 strain (AID 175)
Settings: S. cerevisiae mlh1 rad18 strain growth inhibition, hits give high values; at 50.0 µM unless noted
Compounds without any hit were thinned out: in the full panel of roughly 79,000, 15% have a hit.
Measured growth inhibition by item
READOUT TYPE: growth inhibition (%)

MOLECULE	REPORTED RESULT
CNC(=O)N(CCCCC(NC(C)=O)C(=O)NCc1ccccc1)Cc1ccccc1 (stereo unspecified)	-12.8
COC(=O)/C(=C(\C)NC(C)=O)c1c(C(=O)OC)[nH]c2ccccc12	-111
O=C(c1ccccc1)C1(c2ccccc2)OC1(C(=O)c1ccccc1)c1ccccc1 (stereo unspecified)	4.2
CCCCC(O)CCC (stereo unspecified)	-33.5
O=C(O)c1c(-c2nccc3ccccc23)[nH]c(-c2ccccc2)c1S(=O)(=O)O	21.6
c1ccc2nc3c(cc2c1)c1c(c2ccccc23)CCCC1	22.9

* * *

Measured growth inhibition by item
Experiment: NCI Yeast Anticancer Drug Screen. Data for the mlh1 rad18 strain (AID 175)
Settings: S. cerevisiae mlh1 rad18 strain growth inhibition, hits give high values; at 50.0 µM unless noted
Compounds without any hit were thinned out: in the full panel of roughly 79,000, 15% have a hit.
READOUT TYPE: growth inhibition (%)

COMPOUND	READOUT TYPE	REPORTED RESULT
O=C(O)C(F)(F)C(F)(F)C(F)(F)F	growth inhibition	3.25
CSC(C1c2ccccc2N(c2ccc(C)cc2)c2[nH]c(=O)n(C)c(=O)c21)S(=O)(=O)c1ccc(C)cc1 (stereo unspecified)	growth inhibition	16.6
CC(=O)OC(C(N)=O)c1ccccc1 (stereo unspecified)	growth inhibition	-2.95
O=C(Cc1ccccc1)NCCCN(CCCCN(CCCNC(=O)Cc1ccccc1)C(=O)OCc1ccccc1)C(=O)OCc1ccccc1	growth inhibition	-27.6
Nc1nc(=S)c2c(ncn2CCO)[nH]1	growth inhibition	3.85
CN(C)c1ccc(C(c2ccc(N(C)C)cc2)c2ccc([N+](=O)[O-])cc2)cc1	growth inhibition	-16.8
CC/C(C)=N\NS(=O)(=O)c1ccc(NC(C)=O)cc1	growth inhibition	-0.7
Cc1cc2ccccc2n1/C=C/C1=[N+](C)c2ccccc2C1(C)C	growth inhibition	25.9
CC(N)C(=O)NO (stereo unspecified)	growth inhibition	-36
COc1ccc(NC(=O)c2ccc(OC)cc2)cc1	growth inhibition	-3.7
CCCCOC(=O)C(C)OC(=O)C(C)Oc1cc(Cl)c(Cl)cc1Cl (stereo unspecified)	growth inhibition	-0.8

* * *

Assay: NCI Yeast Anticancer Drug Screen. Data for the sgs1 mgt1 strain (AID 161);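 note: 0% = growth of cultures given vehicle only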
Settings: S. cerevisiae sgs1 mgt1 strain, hits give high values; at 50.0 µM unless noted
Compounds without any hit were thinned out: in the full panel of roughly 79,000, 15% have a hit.
Measured growth inhibition by item
READOUT TYPE: growth inhibition (%)

COMPOUND	READOUT TYPE	REPORTED RESULT
CC1CC(Nc2ccc(Br)cc2)N(C(=O)c2ccc(Br)cc2)O1 (stereo unspecified)	growth inhibition	25.5
NC(=O)Cc1ccc2c3c(cccc13)CC2	growth inhibition	2.45
CC(=O)Nc1ccc(N(C)C)cc1	growth inhibition	0.55
CC1=C(C#N)C(=C(C#N)C#N)OC1(C)Cc1ccccc1 (stereo unspecified)	growth inhibition	24.6
COS(=O)(=O)N(C)c1nc(N(C)C)nc(N(C)C)n1	growth inhibition	-1.2
CCC(=O)COc1ccc(NC(NC(=O)C(C(F)(F)F)C(F)(F)F)(C(F)(F)F)C(F)(F)F)cc1	growth inhibition	6.5
COc1ccc2c(c1)[nH]c1c3ccc(OC)cc3oc(=O)c21	growth inhibition	-35.5
COC(=O)[C@]1(c2ccc(N(C)C)cc2OC)C[C@@H]2CCCN(CCc3c1[nH]c1ccccc31)C2	growth inhibition	-11.5
COC1C(O)C(n2ncc3c(SC)nc(SC)nc32)OC1C(O)CO (stereo unspecified)	growth inhibition	-16.2
CC1CCC(c2cc(-c3ccccc3)n(-c3ccccc3)n2)CC1 (stereo unspecified)	growth inhibition	-2.35
CCN(CC)CCC1CCCCN1CC(=O)N1c2ccccc2NC(=O)c2ccccc21 (stereo unspecified)	growth inhibition	8.9
